Data origin: patent US20110300198A1

ASSAY: Extraction of lavender essential oil constituents from the skin after patch application
Assay type: in vivo
PROTOCOL CONDITIONS: male, Sprague-Dawley, rat, skin (ethanol extract of the application site), topical, 7.5 % lavender oil in patch, skin under 7.5% lavender oil patch, removed after 60 h, read-out: Concentration extracted from the skin
PROPERTY LABEL: concentration at 60 h

INSERT INTO results (compound, property_label, test_value) VALUES
  ('C=CC(C)(O)CCC=C(C)C (stereo not shown) [Linalool]', 'concentration at 60 h', '62 ng/mL');

* * *

# key: entry, value: concentration at 60 h
ASSAY: In-vivo experiment with HP-5 column, constituents in blood
Design: species or system rat
PROTOCOL CONDITIONS: male, Sprague-Dawley, rat, in vivo
PROPERTY LABEL: concentration at 60 h

INSERT INTO results (molecule, test_value) VALUES
  ('CC1(C)C2CCC1(C)C(O)C2 (stereo not drawn) [borneol, Borneol]', '31 ng/mL'),
  ('CC12CCC(CC1=O)C2(C)C (stereo not drawn) [Camphor]', '35 ng/mL'),
  ('C=CC(C)(O)CCC=C(C)C (stereo not drawn) [Linalool]', '53 ng/mL');
